From: patent US20250208133A1

assay.text: Crystal violet staining cell viability, non-senescent cells
Format: cell-based, human
condition.description: human, non-senescent IMR-90 fibroblasts, non-senescent cells, read-out: cell viability, quantification of adherent cells

{"chemical.smiles": "Cc1cccc(/C=N/Nc2cc(N3CCOCC3)nc(OCCc3ccccn3)n2)c1", "viability at 48 h, 1 µM": "92%"}
